System: XF498
Test Method Notes: NCI tumour cell line growth inhibition, 48 h
Activity calls are given as the source filed them. No stated cut-off is given here; in the data, active = GI50 up to about 1.1 µM and inactive = higher.
Assay Metric: GI50

Below are worked cases with known answers.
Query :: State its GI50 for this compound: COc1ccc(CC2NCCc3c2[nH]c2ccccc32)cc1 (stereo not given)
Result :: 16.9 µM (inactive)

Query :: Report measured GI50; entry is `O=[N+]([O-])c1nccn1COCCI`
Result :: > 100 µM (inactive)

Query :: Given Cc1cc(O)c2c(c1)C(=O)c1c(c(O)cc(O)c1-c1c(O)cc(O)c3c1C(=O)c1cc(C)cc(O)c1C3=O)C2=O [SKYRIN] , respond with its GI50.
Result :: 21.1 µM (inactive)

Query :: Supply recorded GI50 for `COC(=O)c1cc(=O)nc2cc3cccccc3n12` here.
Result :: > 100 µM (inactive)

Consider now this further compound.
Query :: Report GI50 for `C/C(CN1C(=O)c2ccccc2C1=O)=N\NS(=O)(=O)c1ccc(Cl)cc1`
Result :: > 100 µM (inactive)

* * *

System: MOLT-4
Test Method Notes: NCI tumour cell line growth inhibition, 48 h
Calls of active or inactive are those of the source. Cut-off read from the data, not from the text of the source: active = GI50 up to about 1.1 µM and inactive = higher.
I would appreciate it if you answered using one of these outcomes: active, inactive

Query :: Kindly provide the recorded test outcome for the following compound: `COc1ccc2c(c1)CCCN2CCCCCCCCCCN(CCC(C)C)CCC(C)C`
Result :: inactive

Query :: Please indicate how the test categorized `Clc1ccccc1C(Nc1ncccn1)Nc1ncccn1` .
Result :: inactive

***
Query :: What did the test return for CC1(Cl)C(=O)NC(=O)N([C@H]2C[C@H](O)[C@@H](CO)O2)C1N=[N+]=[N-] (some centres undefined) ?
Result :: inactive

Query :: Just curious, what result did `O=C1C2CCN(CC2)C1(CO)CO` get here?
Result :: inactive

Query :: Recorded test outcome, item C[C@]12CC/C(=N\O)C=C1CC[C@@H]1C2CC[C@@]2(C)C1CC[C@@H]2OC1CCCCO1 (some centres undefined)
Result :: inactive

Query :: Hey, what did the test say about CC(=O)OC12CCCCC1C1(CCCC1)NC2=O (centres undefined) ?
Result :: inactive

Query :: Lab log entry: `CN(NC(=O)/C(=C/c1ccc(Cl)cc1)NC(=O)c1ccccc1)c1cn[nH]c(=O)c1Cl` — outcome as called in the assay?
Result :: inactive

Query :: Recorded call for `CCn1c(=O)c2c3cc(OC(C)=O)ccc3oc2c2ccc(OC(C)=O)cc21` ?
Result :: inactive

Query :: Per the records of this test, what outcome belongs to `CCOC(=O)C(=C=C=C(c1ccccc1)c1ccccc1)C(=O)OCC` ?
Result :: inactive

Query :: Per the records of this test, what outcome belongs to `COc1ccc(OC)c2sc(N3C(=O)/C(=C/c4ccc(N(C)C)cc4)N=C3c3ccccc3)nc12` ?
Result :: inactive

* * *

System: EKVX
Test Method Notes: NCI tumour cell line growth inhibition, 48 h
Activity calls are given as the source filed them. No stated cut-off is given here; in the data, active = GI50 up to about 1.1 µM and inactive = higher.
Result category, one only: true (1) = active, false (0) = inactive

Query :: What did this assay record as the result for `CCOC(=O)C1(C#N)C(C#N)(C#N)C1(C#N)C#N` ?
Result :: false (0)

Further cases:
Query :: GET /call?item= `COc1ccc(-c2c(-c3ccccc3)c(C)nc3[nH]c(=S)[nH]c(=S)c23)cc1OC` returns the recorded outcome of this test.
Result :: false (0)

Query :: Please share the test call associated with `CC(=O)NNc1nc(C)c(C(/C=C/c2ccc3c(c2)OCO3)=N/Nc2ccccc2)s1` .
Result :: false (0)

Query :: # outcome recorded in this test, key = `C/C(=N\NC(=O)c1ccncc1)c1ccc2ccccc2c1O`
Result :: true (1)

Query :: Identify the outcome logged in this assay for the molecule shown: `CC(=O)Oc1ccc(O)c(O)c1C/C=C(\C)CC/C=C(\C)CC/C=C(\C)CCC=C(C)C`
Result :: false (0)

Query :: // param item: CC(NC1=NCCO1)c1ccco1 (stereo unspecified) ; yields the recorded call
Result :: false (0)

Query :: Dear colleague, could you share the recorded outcome for `COC(=O)c1cnc(Cl)cn1` when you have a moment?
Result :: false (0)
